# key: entry, value: koff
# Study system: H5VN04 trimeric HA (recombinant hemagglutinin) (influenza A virus (H5VN04), UniProt Q6DQ33)
# Assay overview: SPR
API: value field is a number in s⁻¹; no unit string.

1) A66 CDR-H2 variant IIPIFRTA (germline CDR-H2 with Arg55 restored) scFv (scFv, V domains shown) VH: QVQLVQSGAEVKKPGSSVKVSCKASGGPFSMTAFTWLRQAPGQGLEWMGGIIPIFRTAKYAQKFQGRVTITADESTNTANMELTSLKSEDTAVYYCARTLSSYQPNNDAFAIWGQGTMVTVSS VL: EIVLTQSPATLSLSPGERATLSCRASQSVSSYLAWYQQKPGQAPRLLIYDASNRATGIPARFSGSGSGTDFTLTISRLEPEDFAVYFCQQYGSSPQFGQGTRLEIK : 0.0034

Query (binder): A66 scFv (wild type) (scFv, V domains shown) VH: QVQLVQSGAEVKKPGSSVKVSCKASGGPFSMTAFTWLRQAPGQGLEWMGGISPIFRTPKYAQKFQGRVTITADESTNTANMELTSLKSEDTAVYYCARTLSSYQPNNDAFAIWGQGTMVTVSS VL: EIVLTQSPATLSLSPGERATLSCRASQSVSSYLAWYQQKPGQAPRLLIYDASNRATGIPARFSGSGSGTDFTLTISRLEPEDFAVYFCQQYGSSPQFGQGTRLEIK ; field requested: koff 5e-05

Any idea what its koff is? The binder is F10 CDR-H2 variant ISPIFGTA (germline CDR-H2 with Ser52 restored) scFv (scFv, V domains shown) VH: QVQLVQSGAEVKKPGSSVKVSCTSSEVTFSSFAISWVRQAPGQGLEWLGGISPIFGTANYAQKFQGRVTITADQSTRTAYMDLRSLRSEDTAVYYCARSPSYICSGGTCVFDHWGQGTLVTVSS VL: QPGLTQPPSVSKGLRQTATLTCTGNSNNVGNQGAAWLQQHQGHPPKLLSYRNNDRPSGISERFSASRSGNTASLTITGLQPEDEADYYCSTWDSSLSAVVFGGGTKLTVL 0.00025

Please report the recorded koff for A66 CDR-H2 variant ISPIFGTA (germline CDR-H2 with Ser52 restored) scFv (scFv, V domains shown) VH: QVQLVQSGAEVKKPGSSVKVSCKASGGPFSMTAFTWLRQAPGQGLEWMGGISPIFGTAKYAQKFQGRVTITADESTNTANMELTSLKSEDTAVYYCARTLSSYQPNNDAFAIWGQGTMVTVSS VL: EIVLTQSPATLSLSPGERATLSCRASQSVSSYLAWYQQKPGQAPRLLIYDASNRATGIPARFSGSGSGTDFTLTISRLEPEDFAVYFCQQYGSSPQFGQGTRLEIK . 0.00023

Requested field: koff. Item: A66 germline CDR-H2 variant (IIPIFGTA) scFv (scFv, V domains shown) VH: QVQLVQSGAEVKKPGSSVKVSCKASGGPFSMTAFTWLRQAPGQGLEWMGGIIPIFGTAKYAQKFQGRVTITADESTNTANMELTSLKSEDTAVYYCARTLSSYQPNNDAFAIWGQGTMVTVSS VL: EIVLTQSPATLSLSPGERATLSCRASQSVSSYLAWYQQKPGQAPRLLIYDASNRATGIPARFSGSGSGTDFTLTISRLEPEDFAVYFCQQYGSSPQFGQGTRLEIK 0.0049
